Test system: aP2
Assay: aP2 mRNA expression in adipocytes (real-time PCR)
Assay type: cell-based, human
Details: Table 18; differentiating adipocytes; control = treatment with ISIS 342673
Method: Expression of the four hallmark genes, HSL, aP2, Glut4, and PPARγ, is also measured in adipocytes transfected with oligomeric compounds of the invention. Cells are lysed on day nine post-transfection and total RNA is harvested. The amount of total RNA in each sample is determined using a Ribogreen Assay (Invitrogen Life Technologies, Carlsbad, Calif.). […]
In the oligonucleotide strings, read from the 5' end, every base follows the letter of its sugar. An asterisk marks phosphorothioate; unmarked linkages are phosphodiester. Other units and linkages are bracketed, terminal groups are in braces. A string of capitals states the bases alone. e = 2'-O-(2-methoxyethyl) (MOE); [5mC] = 5-methylcytosine; d = 2'-deoxy (DNA)
Here the recorded AP2 mRNA is given for each entry.

Before answering, review these 4 worked examples.
341806 (antisense GCCAATATTTCTGTGCTGCTA; all 2'-MOE, all phosphorothioate, methylation of C not given here) [compound 341806]	75.8 percentage of control
328103 (antisense e[5mC]*e[5mC]*e[5mC]*eA*eA*eT*eA*eT*e[5mC]*eA*eA*eA*e[5mC]*eA*eT*eA*eT*e[5mC]*eA) [compound 328103]	83.2 percentage of control
105990 (antisense AGCAAAAGATCAATCCGTTA; sugars from the 5' end e5 d10 e5, backbone and methylation of C not given here) [compound 105990]	49.8 percentage of control
328106 (antisense eA*eT*eT*eG*eA*eT*eG*e[5mC]*eG*e[5mC]*e[5mC]*eA*eT*eT*eT*eG*eG*e[5mC]*e[5mC]*eT*eA) [compound 328106]	88.8 percentage of control

Reported AP2 mRNA ( 328102 (antisense eG*e[5mC]*e[5mC]*e[5mC]*e[5mC]*eA*eT*eT*eA*eA*eT*eA*eT*eT*eT*eT*eA*eA*e[5mC]*e[5mC]*eA) [compound 328102] ) = 87.9 percentage of control

Reported AP2 mRNA ( 328108 (antisense eA*eA*eA*e[5mC]*eT*eT*eG*eT*eT*eA*eA*eT*eT*eG*eA*e[5mC]*eT*eG*eT*e[5mC]*eA) [compound 328108] ) = 83.7 percentage of control

Reported AP2 mRNA ( 341807 (antisense CTGGGACTTTGTAGGCCAGTT; all 2'-MOE, all phosphorothioate, methylation of C not given here) [compound 341807] ) = 74.8 percentage of control

Reported AP2 mRNA ( 328109 (antisense eA*eA*eA*eG*eA*eA*eG*eT*eA*eT*eA*eT*eG*e[5mC]*eA*eT*eA*eG*eG*eA*eA) [compound 328109] ) = 84.9 percentage of control

Reported AP2 mRNA ( 328105 (antisense e[5mC]*e[5mC]*eT*e[5mC]*eA*eA*eT*eT*eA*eT*eT*eG*eG*eA*eA*eA*eT*e[5mC]*eA*e[5mC]*eA) [compound 328105] ) = 88.2 percentage of control

Reported AP2 mRNA ( 328111 (antisense eT*e[5mC]*e[5mC]*eG*eA*eG*eT*e[5mC]*eG*eG*eA*eG*eG*eA*eG*eG*eA*eG*eG*eA*eA) [compound 328111] ) = 71.5 percentage of control

Reported AP2 mRNA ( 342673 (antisense eA*eG*eA*e[5mC]*eT*eA*eG*e[5mC]*eG*eG*eT*eA*eT*e[5mC]*eT*eT*eT*eA*eT*e[5mC]*e[5mC]*e[5mC]) [compound 342673] ) = 100 percentage of control
